Where do the numbers come from? From PubChem BioAssay (NCI).

test system: MDA-MB-231 breast; assay: NCI tumour cell line growth inhibition, 48 h
Form field: TGI (one value per entry).

> print(dat)
                                   compound  assay.readout  obs.value
1  O=CN1CCC23CC(O)CCC2C1Cc1cc(Oc2nnnn2-c2ccccc2)cc(O)c13 (stereo not given)            TGI   > 100 µM

Ask: Please give measured TGI of the following entry: CC(=O)N[C@@H](Cc1ccc(OP(=O)(O)O)cc1)C(=O)N[C@H]1CCC(=O)N2CCC[C@@H](C(=O)NCc3ccccc3)N2C1=O
Reply: > 25 µM

Ask: Quickly give me recorded TGI for O=c1[nH]c2c(c(=O)[nH]1)C(c1ccc([N+](=O)[O-])cc1)c1c([nH]c(=O)[nH]c1=O)O2
Reply: > 100 µM

Ask: Please give measured TGI of the following entry: O=C1c2cc(F)ccc2-c2c1c1ccc([N+](=O)[O-])cc1c(=O)n2CCCBr
Reply: > 100 µM

Ask: Specify reported TGI for the compound shown: O=S(=O)(O)c1ccc2c(N=Nc3ccccc3)c(O)ccc2c1
Reply: > 100 µM

Ask: Look up and report measured TGI for this entry: Cc1cc2c(cc1Cl)SC(NNC1=NCCN1)=NS2(=O)=O
Reply: > 10 µM

Ask: Write down TGI measured for item O=C(O)c1cn(C2CC2)c2cc(N3CCN(Cc4c(O)ccc5ccccc45)CC3)c(F)cc2c1=O
Reply: > 100 µM

Ask: Identify the reported TGI for the following entry. COC(=O)/N=[N+](\[O-])C(c1ccccc1)c1ccccc1
Reply: > 100 µM

Ask: Return the recorded TGI value; entry: O=C1NC(=NCCc2ccccn2)S/C1=C\c1ccc2ncccc2c1
Reply: > 25 µM

Ask: Quote TGI reported for C=CC(=O)N1CC[C@H](n2nc(C#Cc3cc(OC)cc(OC)c3)c3c(N)ncnc32)C1 please.
Reply: > 100 µM
